tested on: ATP; test: switch fluorescence ratio, 500 uM ATP over buffer (Cy3 cluster intensity, sum of 5 cycles each) (fold (ratio)); higher = stronger signal-on switching upon ATP binding; sequences stand for … in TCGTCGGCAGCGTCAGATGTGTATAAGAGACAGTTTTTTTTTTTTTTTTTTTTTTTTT…TC; conditions: aptamer strand: ATP DNA aptamer (quencher-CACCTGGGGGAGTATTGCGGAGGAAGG + anchor), 100 nM annealed; ATP concentration: 500 uM;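 further: ATP exposure 15 min at 22 °C before imaging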
METRIC NAME: switch fluorescence ratio
The response must contain the number and no unit.

Please look up its switch fluorescence ratio: ATCAAGTCTG
0.99

Please look up its switch fluorescence ratio: GAATATACTG
1.05

###

system: ATP; test: switch fluorescence ratio, 500 uM ATP over buffer (Cy3 cluster intensity, sum of 5 cycles each) (fold (ratio)); higher = stronger signal-on switching upon ATP binding; sequences stand for … in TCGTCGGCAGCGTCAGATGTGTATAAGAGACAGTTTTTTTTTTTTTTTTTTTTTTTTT…TC; conditions: aptamer strand: ATP DNA aptamer (quencher-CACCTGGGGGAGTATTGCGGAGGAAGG + anchor), 100 nM annealed; ATP concentration: 500 uM;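 further: ATP exposure 15 min at 22 °C before imaging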
This listing pairs sequences with measured switch fluorescence ratio.
The response must contain the number and no unit.

input_sequence=TTAGGCTAAA metric_name="switch fluorescence ratio" result=1
input_sequence=CGGGGTGAAA metric_name="switch fluorescence ratio" result=0.983
input_sequence=TTCTTTTTAG metric_name="switch fluorescence ratio" result=0.979
input_sequence=GAAGTTCGGC metric_name="switch fluorescence ratio" result=1.01
input_sequence=ATAGCGAGGA metric_name="switch fluorescence ratio" result=1.05

Please look up its switch fluorescence ratio: AGGCGGAGCT
0.993

Please look up its switch fluorescence ratio: TGGGGACTTT
1.04

Please look up its switch fluorescence ratio: AGAGGTTTGG
0.994

Please look up its switch fluorescence ratio: TTTTGGAGGA
1.02

###

tested on: ATP; test: switch fluorescence ratio, 500 uM ATP over buffer (Cy3 cluster intensity, sum of 5 cycles each) (fold (ratio)); higher = stronger signal-on switching upon ATP binding; sequences stand for … in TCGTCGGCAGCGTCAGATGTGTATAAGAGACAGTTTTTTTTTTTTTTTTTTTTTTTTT…TC; settings: aptamer strand: ATP DNA aptamer (quencher-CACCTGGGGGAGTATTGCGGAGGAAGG + anchor), 100 nM annealed; ATP concentration: 500 uM;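 further: ATP exposure 15 min at 22 °C before imaging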
This listing pairs sequences with measured switch fluorescence ratio.
The response must contain the number and no unit.

These recorded examples may help you get a feel for the data.
input_sequence=GGGGGGGAG experimental_system=ATP metric_name="switch fluorescence ratio" result=1.02
input_sequence=TGAAGTTAGT experimental_system=ATP metric_name="switch fluorescence ratio" result=0.975
input_sequence=CATGCTGCGG experimental_system=ATP metric_name="switch fluorescence ratio" result=0.999
input_sequence=AAGGGCTACG experimental_system=ATP metric_name="switch fluorescence ratio" result=0.983
input_sequence=AAGCGCCTTT experimental_system=ATP metric_name="switch fluorescence ratio" result=0.985

Please look up its switch fluorescence ratio: TGACAGCCTT
1.07

Please look up its switch fluorescence ratio: TATGTAGGGG
1.09

Please look up its switch fluorescence ratio: CTTATGAGGG
0.99

Please look up its switch fluorescence ratio: AAAATATTCG
1.01

Please look up its switch fluorescence ratio: TATACGTGGG
1.03

Please look up its switch fluorescence ratio: ACATCATACG
1.23

###

This listing pairs sequences with measured switch fluorescence ratio.
test system: ATP; assay: switch fluorescence ratio, 500 uM ATP over buffer (Cy3 cluster intensity, sum of 5 cycles each) (fold (ratio)); higher = stronger signal-on switching upon ATP binding; sequences stand for … in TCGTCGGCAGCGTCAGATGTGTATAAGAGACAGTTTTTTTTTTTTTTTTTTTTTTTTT…TC; conditions: aptamer strand: ATP DNA aptamer (quencher-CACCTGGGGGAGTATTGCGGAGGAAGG + anchor), 100 nM annealed; ATP concentration: 500 uM;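 further: ATP exposure 15 min at 22 °C before imaging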

These recorded examples may help you get a feel for the data.
input_sequence=CGATTAGGTG metric_name="switch fluorescence ratio" result=1.19
input_sequence=GAAATGTACG metric_name="switch fluorescence ratio" result=1.04
input_sequence=AAAAGTGGGC metric_name="switch fluorescence ratio" result=1.07
input_sequence=TTGTTAAGGC metric_name="switch fluorescence ratio" result=1.02
input_sequence=GATAGGGCAA metric_name="switch fluorescence ratio" result=1.08
input_sequence=TGGGTGGGCC metric_name="switch fluorescence ratio" result=0.981
input_sequence=GGATTGGGTG metric_name="switch fluorescence ratio" result=1.04
input_sequence=TCTGAGGTAT metric_name="switch fluorescence ratio" result=1.03
input_sequence=GACGTTTGGG metric_name="switch fluorescence ratio" result=0.982
input_sequence=GGTTGGAAAT metric_name="switch fluorescence ratio" result=0.99

Please look up its switch fluorescence ratio: CATCGTGCTG
0.978

Please look up its switch fluorescence ratio: TGATTCCTGC
1.02

Please look up its switch fluorescence ratio: CAGCGGGGCC
0.994

###

This listing pairs sequences with measured switch fluorescence ratio.
tested on: ATP; experiment: switch fluorescence ratio, 500 uM ATP over buffer (Cy3 cluster intensity, sum of 5 cycles each) (fold (ratio)); higher = stronger signal-on switching upon ATP binding; sequences stand for … in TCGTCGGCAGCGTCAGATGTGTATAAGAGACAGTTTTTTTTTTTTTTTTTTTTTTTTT…TC; details: aptamer strand: ATP DNA aptamer (quencher-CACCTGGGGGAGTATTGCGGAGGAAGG + anchor), 100 nM annealed; ATP concentration: 500 uM;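 further: ATP exposure 15 min at 22 °C before imaging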
The response must contain the number and no unit.

These recorded examples may help you get a feel for the data.
input_sequence=TTGTGTATTT experimental_system=ATP result=1
input_sequence=TAGTGGGCGG experimental_system=ATP result=1.07
input_sequence=TCATATTGGA experimental_system=ATP result=0.979
input_sequence=AATTAGAGTA experimental_system=ATP result=0.994
input_sequence=AGGGAAGAAC experimental_system=ATP result=1.01
input_sequence=GGGGGAGGGC experimental_system=ATP result=1.01
input_sequence=GTTAGGGGAG experimental_system=ATP result=1
input_sequence=CAAGGAGGGA experimental_system=ATP result=1.01

Please look up its switch fluorescence ratio: TTATGGTGGT
0.973

Please look up its switch fluorescence ratio: TAATGCAGGA
1.02

Please look up its switch fluorescence ratio: CGAGGCCTGG
1

Please look up its switch fluorescence ratio: GTTGGTATTG
1

Please look up its switch fluorescence ratio: CTGAGTATGT
0.988

Please look up its switch fluorescence ratio: CAGTCTGCTG
1

Please look up its switch fluorescence ratio: GGGGGGATCA
0.985

Please look up its switch fluorescence ratio: GGTACGGAAA
1.02

Please look up its switch fluorescence ratio: GGTAGACGGT
1.02

Please look up its switch fluorescence ratio: GTCTAAACTT
1.01

###

tested on: ATP; assay: switch fluorescence ratio, 500 uM ATP over buffer (Cy3 cluster intensity, sum of 5 cycles each) (fold (ratio)); higher = stronger signal-on switching upon ATP binding; sequences stand for … in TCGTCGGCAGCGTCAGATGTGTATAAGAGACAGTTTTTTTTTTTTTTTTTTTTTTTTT…TC; conditions: aptamer strand: ATP DNA aptamer (quencher-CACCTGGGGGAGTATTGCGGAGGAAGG + anchor), 100 nM annealed; ATP concentration: 500 uM;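 further: ATP exposure 15 min at 22 °C before imaging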
METRIC NAME: switch fluorescence ratio
The response must contain the number and no unit.

These recorded examples may help you get a feel for the data.
input_sequence=AGTAGTAGGA metric_name="switch fluorescence ratio" result=1.01
input_sequence=ACGTGTCTTG metric_name="switch fluorescence ratio" result=1.01
input_sequence=TTTAAGCACG metric_name="switch fluorescence ratio" result=1.09
input_sequence=GGGGCGGCGA metric_name="switch fluorescence ratio" result=1.02

Would you kindly look at the next entry?
Please look up its switch fluorescence ratio: CACTTGGTTG
0.997

###

test system: ATP; experiment: switch fluorescence ratio, 500 uM ATP over buffer (Cy3 cluster intensity, sum of 5 cycles each) (fold (ratio)); higher = stronger signal-on switching upon ATP binding; sequences stand for … in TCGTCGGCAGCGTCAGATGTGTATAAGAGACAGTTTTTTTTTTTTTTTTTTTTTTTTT…TC; conditions: aptamer strand: ATP DNA aptamer (quencher-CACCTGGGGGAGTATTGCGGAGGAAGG + anchor), 100 nM annealed; ATP concentration: 500 uM;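 further: ATP exposure 15 min at 22 °C before imaging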
METRIC NAME: switch fluorescence ratio

These recorded examples may help you get a feel for the data.
input_sequence=AGGGTTTTGG result=0.999
input_sequence=ATATTTTTTT result=1

Please look up its switch fluorescence ratio: GTTCGAACGG
0.996

Please look up its switch fluorescence ratio: GTGTTAGGGG
1.02

Please look up its switch fluorescence ratio: GAAGGCCATG
1.02

Please look up its switch fluorescence ratio: CACGGATTCA
0.988

Please look up its switch fluorescence ratio: TTAGGGGGAC
1

Please look up its switch fluorescence ratio: GTTGTGAGGA
0.984
